Sourced from ChEMBL document CHEMBL1134559

target-of-assay: Mu-type opioid receptor (Rattus norvegicus)
Sequence (P33535 whole entry): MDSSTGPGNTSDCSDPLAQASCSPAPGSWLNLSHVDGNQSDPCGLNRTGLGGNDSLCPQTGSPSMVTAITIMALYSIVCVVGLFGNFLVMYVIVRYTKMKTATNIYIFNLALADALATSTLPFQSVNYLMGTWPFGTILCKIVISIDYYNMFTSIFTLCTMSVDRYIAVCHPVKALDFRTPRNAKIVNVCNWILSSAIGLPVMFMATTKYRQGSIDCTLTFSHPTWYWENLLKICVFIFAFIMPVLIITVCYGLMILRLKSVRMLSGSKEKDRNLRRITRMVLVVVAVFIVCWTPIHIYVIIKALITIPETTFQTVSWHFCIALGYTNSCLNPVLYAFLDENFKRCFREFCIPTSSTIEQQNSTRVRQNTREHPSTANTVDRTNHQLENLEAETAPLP
assay-text: Binding affinity to mu-opioid receptor of rat brain using [3H]DAMGO as radioligand.
recorded-endpoint: Ki (nM)
Give the value in nM but do not write nM after it.

Would you mind telling me what Ki value was observed for CC(C)[C@@H](CN1CC[C@@](C)(c2cccc(O)c2)[C@@H](C)C1)NC(=O)C1Cc2ccc(O)cc2CN1 (stereo partly specified) ?
3.73

###

target-of-assay: Kappa-type opioid receptor (Cavia porcellus, UniProt P41144)
Sequence (P41144 whole entry): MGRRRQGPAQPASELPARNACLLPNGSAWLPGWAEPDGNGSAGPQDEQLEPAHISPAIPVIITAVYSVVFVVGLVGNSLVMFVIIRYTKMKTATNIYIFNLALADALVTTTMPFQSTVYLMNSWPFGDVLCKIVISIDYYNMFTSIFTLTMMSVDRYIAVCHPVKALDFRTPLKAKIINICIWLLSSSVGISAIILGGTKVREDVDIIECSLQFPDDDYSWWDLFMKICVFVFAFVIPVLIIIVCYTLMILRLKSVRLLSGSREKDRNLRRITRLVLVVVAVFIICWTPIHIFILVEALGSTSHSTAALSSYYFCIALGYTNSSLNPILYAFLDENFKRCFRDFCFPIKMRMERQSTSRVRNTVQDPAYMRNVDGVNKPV
assay-text: Inhibition of stimulation of [35S]GTP-gamma-S, binding produced by the selective agonist (U69593, kappa-receptor), in guinea pig caudate membranes.
recorded-endpoint: Ki (pM)
Give the value in pM but do not write pM after it.

Would you mind telling me what Ki value was observed for CC(C)[C@@H](CN1CC[C@@](C)(c2cccc(O)c2)[C@@H](C)C1)NC(=O)C1Cc2ccc(O)cc2CN1 (stereo partly specified) ?
20

###

target-of-assay: Delta-type opioid receptor (Rattus norvegicus, UniProt P33533)
Sequence (P33533 whole entry): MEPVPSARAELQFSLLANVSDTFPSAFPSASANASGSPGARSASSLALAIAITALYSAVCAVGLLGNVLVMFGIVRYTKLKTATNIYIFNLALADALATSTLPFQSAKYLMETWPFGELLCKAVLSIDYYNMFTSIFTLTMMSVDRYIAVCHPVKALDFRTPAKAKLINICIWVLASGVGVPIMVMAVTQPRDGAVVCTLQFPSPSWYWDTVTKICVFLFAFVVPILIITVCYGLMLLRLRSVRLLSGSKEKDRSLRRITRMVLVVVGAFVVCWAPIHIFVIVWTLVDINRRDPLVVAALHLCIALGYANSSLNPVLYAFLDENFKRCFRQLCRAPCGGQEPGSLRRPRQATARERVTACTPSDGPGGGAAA
assay-text: Binding affinity to delta-opioid receptor of rat brain using [3H]DADLE as radioligand
recorded-endpoint: pKi
Give only the number. pKi is defined as minus log10 of concentration in molar units.

Find the measured pKi: item Oc1ccc2c3c1O[C@H]1c4[nH]c5c(c4C[C@@]4(O)[C@@H](C2)N(CC2CC2)CC[C@]314)C[C@@]1(O)[C@H]2Cc3ccc(O)c4c3[C@@]1(CCN2CC1CC1)[C@H]5O4 , target or system Delta-type opioid receptor (Rattus norvegicus, UniProt P33533).
7.07

###

target-of-assay: Kappa-type opioid receptor (Cavia porcellus)
assay-text: Binding affinity to opioid receptor kappa 1 of guinea pig brain, using [3H]U-69593 as radioligand
recorded-endpoint: Ki
Kindly report the value followed by its unit.

Would you mind telling me what Ki value was observed for Oc1ccc2c3c1O[C@H]1c4[nH]c5c(c4C[C@@]4(O)[C@@H](C2)N(CC2CC2)CC[C@]314)C[C@@]1(O)[C@H]2Cc3ccc(O)c4c3[C@@]1(CCN2CC1CC1)[C@H]5O4 ?
109 nM

Would you mind telling me what Ki value was observed for CC(C)[C@@H](CN1CC[C@@](C)(c2cccc(O)c2)[C@@H](C)C1)NC(=O)CCc1ccc(O)cc1 ?
3.84 nM

###

target-of-assay: Mu-type opioid receptor (Cavia porcellus)
Sequence (P97266 whole entry): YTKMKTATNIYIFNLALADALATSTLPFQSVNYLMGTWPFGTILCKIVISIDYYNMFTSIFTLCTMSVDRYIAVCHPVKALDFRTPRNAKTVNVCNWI
assay-text: Inhibition of stimulation of [35S]GTP-gamma-S, binding produced by the selective agonist (DAMGO, mu-receptor), in guinea pig caudate membranes.
recorded-endpoint: pKi
Give only the number. pKi is defined as minus log10 of concentration in molar units.

Find the measured pKi: item CC(C)[C@@H](CN1CC[C@@](C)(c2cccc(O)c2)[C@@H](C)C1)NC(=O)C1Cc2ccc(O)cc2CN1 (stereo partly specified) , target or system Mu-type opioid receptor (Cavia porcellus).
8.67
